- study_target: cynomolgus ARG2
- Sequence (as listed by the source): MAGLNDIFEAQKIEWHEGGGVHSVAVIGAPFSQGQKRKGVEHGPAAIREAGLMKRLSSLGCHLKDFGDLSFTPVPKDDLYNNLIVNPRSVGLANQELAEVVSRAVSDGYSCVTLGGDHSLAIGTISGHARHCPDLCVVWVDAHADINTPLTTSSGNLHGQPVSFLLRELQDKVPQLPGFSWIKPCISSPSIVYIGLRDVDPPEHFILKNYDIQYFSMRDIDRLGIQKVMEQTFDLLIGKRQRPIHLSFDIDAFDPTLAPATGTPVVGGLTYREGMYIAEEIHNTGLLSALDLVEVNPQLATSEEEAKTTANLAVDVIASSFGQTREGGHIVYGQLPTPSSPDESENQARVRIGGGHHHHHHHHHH
- test_details: Bio-Layer Interferometry (OctetRED) binding kinetics, cynomolgus ARG2
- settings: Fab as analyte; cyno ARG2 ligand; affinity-matured antibodies
kd for assorted molecules
Your answer should be a plain number; it is taken to be in s⁻¹.

[[record]]
molecule = "C0021133: anti-ARG2 antibody, VH SEQ ID NO: 192, VL SEQ ID NO: 197 (antibody, listed as Homo sapiens, V domains shown, C0021133) VH: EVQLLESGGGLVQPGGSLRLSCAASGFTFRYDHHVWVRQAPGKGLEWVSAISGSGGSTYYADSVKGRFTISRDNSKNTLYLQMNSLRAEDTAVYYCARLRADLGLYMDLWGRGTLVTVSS VL: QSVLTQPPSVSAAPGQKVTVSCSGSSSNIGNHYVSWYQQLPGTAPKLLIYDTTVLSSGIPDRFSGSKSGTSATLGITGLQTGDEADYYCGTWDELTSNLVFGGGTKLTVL"
attribute_measured = "kd"
quantitative_readout = 0.000549


--- query ---
Qu. Tell us which kd value is on record for C0021065: anti-ARG2 antibody, VH SEQ ID NO: 72, VL SEQ ID NO: 77 (antibody, listed as Homo sapiens, V domains shown, C0021065) VH: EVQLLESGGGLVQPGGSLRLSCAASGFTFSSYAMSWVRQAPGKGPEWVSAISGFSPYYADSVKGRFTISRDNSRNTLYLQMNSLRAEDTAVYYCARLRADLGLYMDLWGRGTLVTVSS VL: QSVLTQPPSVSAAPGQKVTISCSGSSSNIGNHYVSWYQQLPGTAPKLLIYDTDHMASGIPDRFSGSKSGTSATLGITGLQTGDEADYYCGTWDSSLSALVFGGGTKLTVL
Ans. 0.000782
